Cited source: the RepoRT retention time repository

- test_name: RP, Waters ACQUITY UPLC HSS T3, 0.1 mL/min; A: water + 0.01% formic acid; B: acetonitrile + 0.01% formic acid; gradient (min/%B) 0/10 38/45 45/45 55/0 60/0
- condition_parameters: stereoisomer not certain
measurement_name: log10 of LC retention time (log10 of the value in min)
Please be aware that the numbers have been log10-transformed from LC retention time in min.

Request: # input compound: CC(C)N(C(=O)COc1nnc(C(F)(F)F)s1)c1ccc(F)cc1 ; wanted: its log10 of LC retention time
Result: 1.61

Request: Input CCOC(=O)C1CC(=O)C(=C(O)C2CC2)C(=O)C1 (stereo not given)
Result: 1.42

Request: Input CCCN(CCOc1c(Cl)cc(Cl)cc1Cl)C(=O)n1ccnc1
Result: 1.59

Request: Input NC(Cc1c[nH]c2ccccc12)C(=O)O (stereo not given)
Result: 0.73

Request: Input CC12CCC3c4cc(O)c(O)cc4CCC3C1CCC2=O (stereo not given) [Estrone-2-hydroxy]
Result: 1.39

Request: Input [O-][n+]1nc(-n2ccnc2)nc2ccc(Cl)cc21 [Triazoxide]
Result: 1.20

Request: Input CCOP(=S)(OCC)Oc1cc(C)nc(C(C)C)n1
Result: 1.64

Request: Input O=C1Nc2ccc(Cl)cc2C(c2ccccc2)=NC1O (stereo not given)
Result: 1.31

Request: Input O=C(Nc1ccccc1-c1ccc(Cl)cc1)c1cccnc1Cl
Result: 1.58

Request: Input CNC1CCC(c2ccc(Cl)c(Cl)c2)c2ccccc21 (stereo not given)
Result: 1.39

Request: Input CCCCCC=CCC=CC=CC=CC(SCC(N)C(=O)NCC(=O)O)C(O)CCCC(=O)O (stereo not given)
Result: 1.52
